Data origin: the supplement of paper PMC9233669

- Tested on: biotinyl-Ile-oxazolone
- method_description: self-aminoacylation, catalytic enhancement (BIO) (fold over background); higher = more active; k-Seq, kA / k0A0; sequences stand for … in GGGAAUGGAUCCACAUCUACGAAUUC…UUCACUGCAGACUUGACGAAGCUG
This sample holds only a part of the variants without activity.
Grouping key: self-aminoacylation. Bins: group A = under 1, group B = from 1 up to 2, group C = 2 and over

{"columns": ["seq_string", "system", "qualitative_label"],
 "data": [
  ["UUUUCCCUGGUCAUCGAGUGA [Fam2.1 aminoacylation ribozyme variant]", "biotinyl-Ile-oxazolone", "group C"],
  ["AUUACCCUGGUCAUCCAAUGA [Fam2.1 aminoacylation ribozyme variant]", "biotinyl-Ile-oxazolone", "group A"],
  ["AUACACCGAGGUCAUCGGGUG [Fam2.2 aminoacylation ribozyme variant]", "biotinyl-Ile-oxazolone", "group C"],
  ["UCACACUUCAAGCAAUCAGUC [Fam1B.1 aminoacylation ribozyme variant]", "biotinyl-Ile-oxazolone", "group A"],
  ["AUUACCCUGGUUAUCGAGUAA [Fam2.1 aminoacylation ribozyme variant]", "biotinyl-Ile-oxazolone", "group B"],
  ["CCUCACUUCAAGCAAUCGCUC [Fam1B.1 aminoacylation ribozyme variant]", "biotinyl-Ile-oxazolone", "group B"],
  ["AAGUGUGCUAAUAGUCGCAAA [Fam3.1 aminoacylation ribozyme variant]", "biotinyl-Ile-oxazolone", "group B"],
  ["AUUACCCUGCUUAUCGAGUGA [Fam2.1 aminoacylation ribozyme variant]", "biotinyl-Ile-oxazolone", "group B"],
  ["AAGUUCGCUCAUAGUCGCAAG [Fam3.1 aminoacylation ribozyme variant]", "biotinyl-Ile-oxazolone", "group C"]
]}

###

We begin with a simple list: items and their reported self-aminoacylation.
- Test system: biotinyl-Leu-oxazolone
- method_description: self-aminoacylation, catalytic enhancement (BLO) (fold over background); higher = more active; k-Seq, kA / k0A0; sequences stand for … in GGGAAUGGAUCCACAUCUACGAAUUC…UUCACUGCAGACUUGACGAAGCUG
This sample holds only a part of the variants without activity.

{"columns": ["seq_string", "system", "self-aminoacylation"],
 "data": [
  ["AUUACCGUGGUAAUCGAGUGA [Fam2.1 aminoacylation ribozyme variant]", "biotinyl-Leu-oxazolone", 9.2],
  ["AUUCACCUAGGUAAUCGGAUG [Fam2.2 aminoacylation ribozyme variant]", "biotinyl-Leu-oxazolone", 0.546],
  ["AUUCUCCUAGGUCAUCGGGCG [Fam2.2 aminoacylation ribozyme variant]", "biotinyl-Leu-oxazolone", 5.06],
  ["CUACUUCAAACAAUCCAUCUG [Fam1A.1 aminoacylation ribozyme variant]", "biotinyl-Leu-oxazolone", 0.546],
  ["AUUACCCUGGGCCUCGAGUGA [Fam2.1 aminoacylation ribozyme variant]", "biotinyl-Leu-oxazolone", 3.74]
]}

###

# Lookup of reported self-aminoacylation keyed by entry
- Tested on: biotinyl-Val-oxazolone
- method_description: self-aminoacylation, catalytic enhancement (BVO) (fold over background); higher = more active; k-Seq, kA / k0A0; sequences stand for … in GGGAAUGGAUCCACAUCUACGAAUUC…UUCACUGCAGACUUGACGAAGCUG
Variants at the floor of the assay were thinned out.

{"columns": ["seq_string", "self-aminoacylation"],
 "data": [
  ["CCACACUUAUAGCAAUCGGUC [Fam1B.1 aminoacylation ribozyme variant]", 0.927],
  ["AAGAUUGCUAAUAGUCGCUAG [Fam3.1 aminoacylation ribozyme variant]", 1.04],
  ["AACUUUGCUAAUAGUCGCAUG [Fam3.1 aminoacylation ribozyme variant]", 1.89],
  ["AUUUCCCUGGUCAUCGAGUGC [Fam2.1 aminoacylation ribozyme variant]", 1.08],
  ["AAGUUCGCUAAUAAUCGCAAG [Fam3.1 aminoacylation ribozyme variant]", 1.31]
]}

###

- Tested on: biotinyl-Leu-oxazolone
- method_description: self-aminoacylation, catalytic enhancement (BLO) (fold over background); higher = more active; k-Seq, kA / k0A0; sequences stand for … in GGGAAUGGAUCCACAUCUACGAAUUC…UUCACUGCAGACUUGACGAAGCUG
Variants at the floor of the assay were thinned out.

{"columns": ["seq_string", "self-aminoacylation"],
 "data": [
  ["AAGUCUGCUAAUAGUAGCAAG [Fam3.1 aminoacylation ribozyme variant]", 1.44],
  ["AUUCACCUAGGUAAUUGGGUG [Fam2.2 aminoacylation ribozyme variant]", 6.35],
  ["AAGAUUGCUAAUAGUCGCAAA [Fam3.1 aminoacylation ribozyme variant]", 1.43],
  ["AUUACGCUGGUAAUCGAGUGA [Fam2.1 aminoacylation ribozyme variant]", 5.76],
  ["AUUACCCUGGUGAUCGCGUGA [Fam2.1 aminoacylation ribozyme variant]", 4.38]
]}

###

- System: biotinyl-Phe-oxazolone
- method_description: self-aminoacylation, catalytic enhancement (BFO) (fold over background); higher = more active; k-Seq, kA / k0A0; sequences stand for … in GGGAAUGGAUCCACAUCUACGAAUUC…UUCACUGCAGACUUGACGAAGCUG
Fewer inactive variants are shown than the library holds.

{"columns": ["seq_string", "self-aminoacylation"],
 "data": [
  ["CUACAUCAAACAAUGGGUCUG [Fam1A.1 aminoacylation ribozyme variant]", 2.95],
  ["AUUCACCUUGGUCAUCAGGUG [Fam2.2 aminoacylation ribozyme variant]", 7.28],
  ["AAGUUUGCUCAUAGUCGCAGG [Fam3.1 aminoacylation ribozyme variant]", 2.92],
  ["AUACACUUCAAGCAAUCGGUC [Fam1B.1 aminoacylation ribozyme variant]", 9.74],
  ["UUUUACCUAGGUCAUCGGGUG [Fam2.2 aminoacylation ribozyme variant]", 56.1],
  ["AAGUUUGCUAAUAGUACCAAG [Fam3.1 aminoacylation ribozyme variant]", 1.41],
  ["CUACUUCAAACAAUCUGGCUG [Fam1A.1 aminoacylation ribozyme variant]", 0.69],
  ["CUAGUUCAAACAAUCCGUCUG [Fam1A.1 aminoacylation ribozyme variant]", 0.796],
  ["AUUACCCUGGUCAUGGAGAGA [Fam2.1 aminoacylation ribozyme variant]", 1.19],
  ["AGUCACCUAGGUCAUCGGGUC [Fam2.2 aminoacylation ribozyme variant]", 4.41],
  ["AUUACUCUGGUUAUCGAGUGA [Fam2.1 aminoacylation ribozyme variant]", 51.3],
  ["AUAUUUGCUAAUAGUCGCAAG [Fam3.1 aminoacylation ribozyme variant]", 2.04],
  ["AUGCACCAAGGUCAUCGGGUG [Fam2.2 aminoacylation ribozyme variant]", 59.9],
  ["AUUACCCUGGUCGUCGAGUCA [Fam2.1 aminoacylation ribozyme variant]", 0.524],
  ["AUGUUUGCUAAUAGUCGGAAG [Fam3.1 aminoacylation ribozyme variant]", 5.76],
  ["CUACUUCAAACAAUGCGUCUG [Fam1A.1 aminoacylation ribozyme variant]", 0.887],
  ["ACACACUUCAAGCAAUCGGUU [Fam1B.1 aminoacylation ribozyme variant]", 4.53],
  ["AUCCACCUAGGUCAGCGGGUG [Fam2.2 aminoacylation ribozyme variant]", 31.2],
  ["AAGUUUGGUAAUAGUCGCCAG [Fam3.1 aminoacylation ribozyme variant]", 4.77],
  ["CCACAUUUCAAGCAAUCGGGC [Fam1B.1 aminoacylation ribozyme variant]", 1.7],
  ["CUACUCCAAACAAUCGGGCUG [Fam1A.1 aminoacylation ribozyme variant]", 1.02],
  ["AUUCACUUAGGUCCUCGGGUG [Fam2.2 aminoacylation ribozyme variant]", 35.8],
  ["CUUCACCUAGGUCAUCGGAUG [Fam2.2 aminoacylation ribozyme variant]", 1],
  ["GUACUUCAAACACUCGGUCUG [Fam1A.1 aminoacylation ribozyme variant]", 5.9],
  ["AAUCACCUAGGUCAUCGGGUU [Fam2.2 aminoacylation ribozyme variant]", 11.5],
  ["CUACUUCAAAAAAUCGGUCUC [Fam1A.1 aminoacylation ribozyme variant]", 8.87],
  ["AUUCACCUAGGUCAUCCGGUC [Fam2.2 aminoacylation ribozyme variant]", 4.67],
  ["AUUUCCCUGGUCAUCAAGUGA [Fam2.1 aminoacylation ribozyme variant]", 2.51],
  ["CGACAUUUCAAGCAAUCGGUC [Fam1B.1 aminoacylation ribozyme variant]", 1.28],
  ["CUACUUCAAGCAAUCGGUGUG [Fam1A.1 aminoacylation ribozyme variant]", 3.56],
  ["AAGGUUGCUAAUAGUCCCAAG [Fam3.1 aminoacylation ribozyme variant]", 2.86],
  ["AAUUUCGCUAAUAGUCGCAAG [Fam3.1 aminoacylation ribozyme variant]", 2.64],
  ["CUACUUUAAAAAAUCGGUCUG [Fam1A.1 aminoacylation ribozyme variant]", 0.887],
  ["CCACACCUCAACCAAUCGGUC [Fam1B.1 aminoacylation ribozyme variant]", 3.45],
  ["CCAAACCUCAAGCAAUCGGUC [Fam1B.1 aminoacylation ribozyme variant]", 1.54]
]}
